# Lookup of reported protein stability index keyed by entry
B1: ELF3 (parent)
chain: RLVYKFGKNSSGWKEEEVLQSRN

Variants of: B1
Assay: protein stability index of a GFP-peptide fusion (GPS, HEK-293T) (PSI 1-6); higher = more stable;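 note: lentivirally expressed fusions sorted by FACS into six bins by GFP to DsRed ratio, PSI derived from sequencing read proportions per bin multiplied by bin number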
Details: c terminus: native

// worked examples, protein stability index included
RLVYKFGKNSSGWKEEVVLQSRN :: 1.98
RLVYKRGKNSSGWKEEEVLQSRN :: 3.06
RLVYKFGKKSSGWKEEEVLQSRN :: 1.97
RSVYKFGKNSSGWKEEEVLQSRN :: 2.93
RLVYKFGKNSSGWKEYEVLQSRN :: 2.91

Ask: Would you kindly share the measured protein stability index for `RLYYKFGKNSSGWKEEEVLQSRN` ?
Result: 2.37
